- Tested on: Mycobacterium tuberculosis
- ASSAY_DETAILS: MMV: Screen against Mtb, single point, non replicating, at 25uM
- Format: functional
ASSAY_READOUT: inhibition at 25 µM (%)
Numbers only, in %.

INSERT INTO results (molecule, assay_readout, result_units, observed_value) VALUES
  ('COCCn1c(C)nc2ccccc2c1=O', 'inhibition at 25 µM', '%', 13.6),
  ('CCCN(CCC)CCCNC(=O)c1cc2c(-c3ccc(OC)c(OC)c3)nn(C)c2s1', 'inhibition at 25 µM', '%', -0.011),
  ('CN1C=C(c2ccc3ccccc3n2)C(c2c[nH]c3ccccc23)c2ccccc21 (stereo not given)', 'inhibition at 25 µM', '%', 20.1),
  ('CCOc1cc2c(cc1OCC)C(c1cc(C)c(O)c(C)c1)NCC2 (stereo not given)', 'inhibition at 25 µM', '%', 11.5),
  ('OC1=C2C(=Nc3ccccc3SC2c2ccccc2)c2ccccc21 (stereo not given)', 'inhibition at 25 µM', '%', 14.1),
  ('COc1ccc2c(=O)cc(C(Cl)(Cl)Cl)oc2c1', 'inhibition at 25 µM', '%', 18.3),
  ('CCCCCC(=O)N1c2ccccc2N=C2CC(c3ccc(OC)c(OC)c3)CC(O)=C2C1c1ccc(C(F)(F)F)cc1 (stereo not given)', 'inhibition at 25 µM', '%', 16),
  ('COc1ccc(-c2nc(N3CCN(C(=O)C4CCCCC4)CC3)c3c4c(sc3n2)CCCC4)cc1', 'inhibition at 25 µM', '%', 12.7),
  ('O=C(NNc1cc(N2CCCC2)nc(N2CCCC2)n1)c1ccccc1', 'inhibition at 25 µM', '%', 30.6);

Now let's try a different one.
Look up inhibition at 25 µM for this molecule: c1ccc2c(NCCc3c[nH]c4ccccc34)c3ccccc3nc2c1
17.8

###

- Test system: Mycobacterium tuberculosis
- ASSAY_DETAILS: MMV: Screen against Mtb, single point, non replicating, at 25uM
- Type: functional
Give criterion met when the value for inhibition at 25 µM is at least 10%. Give criterion not met when it is less.

INSERT INTO assay_data (compound, discrete_label) VALUES
  ('O=C(NCC1Cc2cccc(-c3ccncc3)c2O1)c1csc2c1CCCC2 (configuration not stated)', 'criterion not met'),
  ('CC(=O)c1sc(NC(=O)Nc2ccc(C)cc2C)nc1C', 'criterion not met'),
  ('CCN(CC)CCCNc1nc(-c2ccc(Cl)cc2)nc2ccccc12', 'criterion met'),
  ('CCN(Cc1ccccc1)C1CCN(Cc2cc(Br)ccc2O)CC1', 'criterion met'),
  ('CCOc1ccc(CCNC(=O)c2cccs2)cc1OCC', 'criterion met'),
  ('COc1cccc(C=Cc2nc(=O)c3ccccc3o2)c1OC', 'criterion met');

Could you please find out whether O=C(NCC(c1ccsc1)N1CCCCCC1)c1ccc(C(F)(F)F)cc1 (configuration not stated) has inhibition at 25 µM that meets 10% or exceeds it?
criterion met

Could you please find out whether CC(C)(C)c1ccc(C(=O)Nc2nc3ccccc3s2)cc1 has inhibition at 25 µM that meets 10% or exceeds it?
criterion not met

Could you please find out whether Cc1cc(C=C2SC(=Nc3ccccc3)N(C3CCCC3)C2=O)c(C)n1-c1ccc(Cl)cc1 has inhibition at 25 µM that meets 10% or exceeds it?
criterion not met

Could you please find out whether CCN(CC)S(=O)(=O)c1ccc(-c2csc(Nc3ccc(C)c(C)c3)n2)cc1 has inhibition at 25 µM that meets 10% or exceeds it?
criterion met

Could you please find out whether COc1cccc(-c2nn(C)c3sc(C(=O)NCCN4CCN(c5ccccc5F)CC4)cc23)c1 has inhibition at 25 µM that meets 10% or exceeds it?
criterion met

Could you please find out whether CCOc1cc(Cl)c(C(C)NC(=O)c2ccccc2)cc1OCC (configuration not stated) has inhibition at 25 µM that meets 10% or exceeds it?
criterion not met

Could you please find out whether Clc1ccc2c(N3CCCC3)ccnc2c1 has inhibition at 25 µM that meets 10% or exceeds it?
criterion met

Could you please find out whether CN(C)c1ccc(C(O)(c2ccc(N(C)C)cc2)c2ccc(N(C)C)cc2)cc1 [METHYLROSANILINE] has inhibition at 25 µM that meets 10% or exceeds it?
criterion met

Could you please find out whether Oc1ccc(C(=C(Cl)Cl)c2ccc(O)cc2)cc1 has inhibition at 25 µM that meets 10% or exceeds it?
criterion not met

Could you please find out whether CCCCCn1c(=N)n(CC(O)COc2cccc(C)c2)c2ccccc21 (configuration not stated) has inhibition at 25 µM that meets 10% or exceeds it?
criterion not met
